# target.entity: NAMPT (Homo sapiens)
# Construct: His tag; host or cells: E. coli
# assay.notes: Biochemical inhibition assay: NAMPT enzymatic reaction, NMN quantified by mass spectrometry
# measurement.conditions: NAMPT enzymatic assay; read-out: Biochem IC50
hey, just use true if measured IC50 is less than 9 nM, otherwise false

COc1ccc(C(C)(C)C)cc1S(=O)(=O)c1ccc(CNC(=O)c2ccc3nccn3c2)cc1 ... false
O=C(NCc1ccc(S(=O)(=O)c2ccc(F)cc2C(F)(F)F)cc1)c1cnc2[nH]ncc2c1 ... false
CC(C)c1ccc(S(=O)(=O)c2ccc(CNC(=O)c3cnc4nccn4c3)cc2)cc1 ... true
O=C(NCc1ccc(S(=O)(=O)c2cccc(-n3cccn3)c2)cc1)c1cc2cnccc2[nH]1 ... false
Cc1cccc(S(=O)(=O)c2ccc(CNC(=O)c3cc4ccncc4s3)cc2)c1C ... false

Next item in the queue.
IC50 strictly < 9 nM for this compound? "O=C(NCc1ccc(S(=O)(=O)c2cc(F)cc(C(F)(F)F)c2)cc1)c1cc2ccncc2o1"
true

----------
# target.entity: NAMPT (Homo sapiens)
# Construct: His tag; host or cells: E. coli
# assay.notes: Biochemical inhibition assay: NAMPT enzymatic reaction, NMN quantified by mass spectrometry
# measurement.conditions: NAMPT enzymatic assay; read-out: Biochem IC50
Recorded pIC50 for the following compounds
Bear in mind: pIC50 is minus log10 of a mol/L concentration; give just that figure.

Study these solved cases before continuing.
Cc1nc(-c2cccc(S(=O)(=O)c3ccc(CNC(=O)c4cc5ccncc5s4)cc3)c2)no1 ... 8.48
CC(C)COc1ccc(S(=O)(=O)c2ccc(CNC(=O)c3cc4ccncc4o3)cc2)cc1 ... 8.03
CCNC(=O)c1ccc(S(=O)(=O)c2ccc(CNC(=O)c3cc4ccncc4s3)cc2)cc1 ... 8.82
O=C(NCc1ccc(S(=O)(=O)c2ccc(CO)cc2)cc1)c1cc2ccncc2s1 ... 8.42
Cn1ncc2cc(S(=O)(=O)c3ccc(CNC(=O)c4cnc5[nH]ncc5c4)cc3)ccc21 ... 8.27
O=C(NCc1ccc(S(=O)(=O)c2cccc(C(=O)NC3CCCC3)c2)cc1)c1ccc2nccn2c1 ... 7.99
Cc1cc(-n2cccn2)ccc1S(=O)(=O)c1ccc(CNC(=O)c2cc3ccncc3s2)cc1 ... 8.82
O=C(NCc1ccc(S(=O)(=O)c2csc(-c3cccc(F)c3)n2)cc1)c1cc2ccncc2s1 ... 8.18

Returns the measured pIC50 for the input compound. Input: "CC(C)COc1cccc(S(=O)(=O)c2ccc(CNC(=O)c3cnc4[nH]ncc4c3)cc2)c1"
7.55

Using the record for "CSc1ccc(S(=O)(=O)c2ccc(CNC(=O)c3cc4ccncc4o3)cc2)cc1F" , report its pIC50.
7.91

pIC50 lookup needed for "CCNC(=O)c1ccc(S(=O)(=O)c2ccc(CNC(=O)c3cc4ccncc4o3)cc2)cc1" , thanks.
8.35

Entry under review: "O=C(NCc1ccc(S(=O)(=O)c2ccc(F)cc2C(F)(F)F)cc1)c1cc2ccncc2s1" . Reported pIC50?
8.19

Look up pIC50 for this compound: "COc1cccc(S(=O)(=O)c2ccc(CNC(=O)c3cc4ccncc4s3)cc2)c1OC"
8.05

Item under review: "O=C(NCc1ccc(S(=O)(=O)c2ccc3nc(C(F)(F)F)cn3c2)cc1)c1ccc2nccn2c1" . Reported pIC50?
7.44

Looking for the measured pIC50 of "COc1cc(C)cc(S(=O)(=O)c2ccc(CNC(=O)c3cc4cnccc4[nH]3)cc2)c1OC" , can you help?
8.00

What value of pIC50 has been reported for the following compound? "COc1c(C(F)(F)F)cccc1S(=O)(=O)c1ccc(CNC(=O)c2ccc3nccn3c2)cc1"
7.66

Bench note: what pIC50 did "CC(C)Oc1cccc(S(=O)(=O)c2ccc(CNC(=O)c3cc4ccncc4s3)cc2)c1F" show?
8.33

Endpoint output: pIC50 of "COc1cncc(S(=O)(=O)c2ccc(CNC(=O)c3ccc4nccn4c3)cc2)c1" . Value?
8.05

So what's the measured pIC50 for this one? "O=C(NCc1ccc(S(=O)(=O)c2cnn(-c3cccc(Cl)c3)c2)cc1)c1cnc2[nH]ncc2c1"
7.55

Name the reported pIC50 value associated with the compound "O=C(NCc1ccc(S(=O)(=O)c2ccccc2C(F)(F)F)cc1)c1cc2ccncc2o1"
7.71

Please give the measured pIC50 for this compound: "O=C(NCc1ccc(S(=O)(=O)c2cncc3ccccc23)cc1)c1cc2ccncc2s1"
8.17

# pIC50 lookup, item "CC(C)c1ccc(S(=O)(=O)c2ccc(CNC(=O)c3ccc4nccn4c3)cc2)cc1"
7.84

Could you share which pIC50 value was measured for "Cc1cncc(S(=O)(=O)c2ccc(CNC(=O)c3ccc4nccn4c3)cc2)c1" ?
7.43

I am curious: what pIC50 value has been reported for "O=C(NCc1ccc(S(=O)(=O)c2cc(F)ccc2CO)cc1)c1cc2ccncc2s1" ?
8.11

Quick check: pIC50 of "COc1cncc(S(=O)(=O)c2ccc(CNC(=O)c3cnc4nccn4c3)cc2)c1" ?
8.80

----------
# target.entity: NAMPT (Homo sapiens, UniProt P43490)
# Construct: His tag; host or cells: E. coli
# Sequence (P43490 whole entry): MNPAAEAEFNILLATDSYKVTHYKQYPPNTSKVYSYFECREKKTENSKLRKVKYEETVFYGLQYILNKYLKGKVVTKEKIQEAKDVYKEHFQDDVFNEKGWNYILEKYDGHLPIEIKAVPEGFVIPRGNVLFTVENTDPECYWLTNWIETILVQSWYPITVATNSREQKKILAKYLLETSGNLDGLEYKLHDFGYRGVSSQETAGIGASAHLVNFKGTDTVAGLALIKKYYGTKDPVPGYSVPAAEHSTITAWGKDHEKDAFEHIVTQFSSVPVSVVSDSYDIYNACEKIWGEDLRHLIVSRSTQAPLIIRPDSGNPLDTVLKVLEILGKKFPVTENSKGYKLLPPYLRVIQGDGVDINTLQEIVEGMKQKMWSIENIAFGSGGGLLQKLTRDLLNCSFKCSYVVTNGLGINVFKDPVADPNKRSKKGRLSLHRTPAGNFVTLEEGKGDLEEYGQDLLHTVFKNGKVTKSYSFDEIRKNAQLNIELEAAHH
# assay.notes: Biochemical inhibition assay: NAMPT enzymatic reaction, NMN quantified by mass spectrometry
# measurement.conditions: NAMPT enzymatic assay; read-out: Biochem IC50
Reported pIC50 by item:
pIC50 (log units): -log10 of the concentration in mol/L.

As a guide, the following entries are already answered.
Cc1cc(C(F)(F)F)ccc1S(=O)(=O)c1ccc(CNC(=O)c2cnc3nccn3c2)cc1 ... 8.15
Cc1cncc(S(=O)(=O)c2ccc(CNC(=O)c3cnc4nccn4c3)cc2)n1 ... 9.00

Find the recorded pIC50 belonging to "Cc1cc(C)c(S(=O)(=O)c2ccc(CNC(=O)c3cc4ccncc4s3)cc2)cc1C" and report it.
8.10

Would you kindly share the measured pIC50 for "CN1CCN(c2ccc(S(=O)(=O)c3ccc(CNC(=O)c4cc5ccncc5s4)cc3)cc2)CC1" ?
9.00

Request the reported pIC50 associated with "Cn1ncc2cccc(S(=O)(=O)c3ccc(CNC(=O)c4cc5ccncc5o4)cc3)c21"
7.94

Looking for the measured pIC50 of "CSc1ccc(S(=O)(=O)c2ccc(CNC(=O)c3ccc4nccn4c3)cc2)cc1F" , can you help?
8.25

Using the record for "O=C(NCc1ccc(S(=O)(=O)c2cccc3cccnc23)cc1)c1cnc2nccn2c1" , report its pIC50.
8.52

Entry "COc1ccc(S(=O)(=O)c2ccc(CNC(=O)c3cc4ccncc4s3)cc2)c(C(F)(F)F)c1" : reported pIC50 = ?
7.66

Which pIC50 is reported for this compound? "Cc1nc(S(=O)(=O)c2ccc(CNC(=O)c3cc4ccncc4o3)cc2)ccc1F"
8.21

----------
# target.entity: NAMPT (Homo sapiens)
# Construct: His tag; host or cells: E. coli
# assay.notes: Biochemical inhibition assay: NAMPT enzymatic reaction, NMN quantified by mass spectrometry
# measurement.conditions: NAMPT enzymatic reaction; read-out: Biochem IC50
IC50: recorded values
Could you give me the number in nM? Just the number is fine.

In the examples that follow, each entry is paired with its recorded IC50.
O=C(NCc1ccc(S(=O)(=O)c2cccc3ccccc23)cc1)c1cc2ccncc2s1 ... 2
O=C(NCc1ccc(S(=O)(=O)c2cccc3c2Oc2ccccc2S3)cc1)c1cc2ccncc2s1 ... 4

So what's the measured IC50 for this one? "CCCOc1ccc(S(=O)(=O)c2ccc(CNC(=O)c3cc4ccncc4o3)cc2)c(C)c1"
22.5

Endpoint output: IC50 of "O=C(NCc1ccc(S(=O)(=O)c2ccc3c(c2)OCCO3)cc1)c1cc2ccncc2s1" . Value?
4

Consider the compound shown here: "O=C(NCc1ccc(S(=O)(=O)c2ccc(-c3ccccc3)cc2)cc1)c1cc2cnccc2[nH]1" What is its recorded IC50?
31

Can you look up the measured IC50 of "O=C(NCc1ccc(S(=O)(=O)c2ccccc2Oc2ccccc2)cc1)c1ccc2nccn2c1" for me?
63.6

Field request: IC50 | item: "O=C(NCc1ccc(S(=O)(=O)CCCCc2ccccc2)cc1)c1cc2cnccc2[nH]1"
216

Dear colleague, I am looking for the recorded IC50 of the following compound: "COc1cc(Cl)cc(S(=O)(=O)c2ccc(CNC(=O)c3ccc4nccn4c3)cc2)c1"
9.2

Field request: IC50 | item: "Cc1c(F)cccc1S(=O)(=O)c1ccc(CNC(=O)c2ccc3nccn3c2)cc1"
46.9

What IC50 value was documented for this compound, "COc1ccc(OC)c(S(=O)(=O)c2ccc(CNC(=O)c3cc4ccncc4o3)cc2)c1" ?
11.4

State the recorded IC50 for this entry: "O=C(NCc1ccc(S(=O)(=O)N2CC3CCC(C2)O3)cc1)c1cc2cnccc2[nH]1"
8

What measured IC50 goes with "O=C(NCc1ccc(S(=O)(=O)c2cccc3cc[nH]c23)cc1)c1cc2ccncc2s1" ?
3
